Molecular target: PAD3 (Homo sapiens, UniProt Q9ULW8)
Construct: made in house
Sequence (Q9ULW8 whole entry): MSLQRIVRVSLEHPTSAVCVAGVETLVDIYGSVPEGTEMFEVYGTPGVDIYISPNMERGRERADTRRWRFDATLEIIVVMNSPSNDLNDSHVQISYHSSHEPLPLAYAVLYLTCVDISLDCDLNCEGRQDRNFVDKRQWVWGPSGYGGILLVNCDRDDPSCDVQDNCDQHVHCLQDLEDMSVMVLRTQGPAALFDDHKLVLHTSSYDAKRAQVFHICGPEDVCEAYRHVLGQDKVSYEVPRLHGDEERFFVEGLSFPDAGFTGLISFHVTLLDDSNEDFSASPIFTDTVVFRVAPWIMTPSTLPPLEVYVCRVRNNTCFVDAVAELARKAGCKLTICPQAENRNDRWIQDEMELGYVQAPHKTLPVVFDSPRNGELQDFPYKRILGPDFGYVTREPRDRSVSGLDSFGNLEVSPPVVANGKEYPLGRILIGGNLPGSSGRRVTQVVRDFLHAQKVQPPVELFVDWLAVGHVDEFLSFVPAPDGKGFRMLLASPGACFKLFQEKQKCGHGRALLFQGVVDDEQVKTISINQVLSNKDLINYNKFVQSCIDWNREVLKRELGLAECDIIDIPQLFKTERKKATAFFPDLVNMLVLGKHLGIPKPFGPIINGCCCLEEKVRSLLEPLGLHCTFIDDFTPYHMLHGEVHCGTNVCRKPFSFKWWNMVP
Assay: Inactivation kinetics, PAD3
Format: biochemical
Conditions: a: single kobs determined
Parameter: kinact/KI (M⁻¹ s⁻¹)

[[record]]
compound = "CCN1Cc2cccc(C(=O)N[C@@H](CCCNC(=N)CCl)c3nc4cc(OC)ccc4n3C)c2C1=O"
target_or_test_system = "PAD3 (Homo sapiens, UniProt Q9ULW8)"
parameter = "kinact/KI"
reported_result = 296


[1] CCOc1cccc2c1nc([C@H](CCCNC(=N)CF)NC(=O)c1cccc3c1C(=O)N(CC)C3)n2C
[2] COc1cccc2c1nc([C@H](CCCNC(=N)CF)NC(=O)c1cccc3c1C(=O)N(C(C)C)C3)n2C
Lower value for measured kinact/KI? Options: 1 , 2 Kindly state the label of the option you pick. 2
(2: 26.7 M⁻¹ s⁻¹, 1: 57.8 M⁻¹ s⁻¹)

[a] COc1cccc2c1nc([C@H](CCCNC(=N)CCl)NC(=O)c1ccc(-c3ccccc3)cc1)n2C
[b] CCn1c([C@H](CCCNC(=N)CF)NC(=O)c2ccc(-c3ccccc3)cc2)nc2ccccc21
[c] CCOc1cccc2c1nc([C@H](CCCNC(=N)CCl)NC(=O)c1cccc3c1C(=O)N(CC)C3)n2C
Sort the compounds on kinact/KI; start with the lowest figure. Quick reminder: the answer is the labels in the order asked. b, a, c
(b: 30 M⁻¹ s⁻¹, a: 91.7 M⁻¹ s⁻¹, c: 138 M⁻¹ s⁻¹)

[A] CC(C)n1c([C@H](CCCNC(=N)CCl)NC(=O)c2ccccc2C(=O)OC(C)(C)C)nc2ccccc21
[B] CC(C)n1c([C@H](CCCNC(=N)CF)NC(=O)c2ccccc2C(=O)O)nc2ccccc21
Lower value for measured kinact/KI? Options: A , B Kindly state the label of the option you pick. B

[A] Cn1c([C@H](CCCNC(=N)CF)NC(=O)c2ccc(-c3ccccc3)cc2)nc2ccccc21
[B] N=C(CF)NCCC[C@H](NC(=O)c1ccccc1)c1nc2ccccc2[nH]1
Lower value for measured kinact/KI? Options: A , B Kindly state the label of the option you pick. B
(B: 15 M⁻¹ s⁻¹, A: 26.7 M⁻¹ s⁻¹)

----------
Biological target: PAD3 (Homo sapiens, UniProt Q9ULW8)
Construct: made in house
Test: Inactivation kinetics, PAD3
Format: biochemical
Details: a: single kobs determined
Parameter: kinact/KI (M⁻¹ s⁻¹)

[P] N=C(CCl)NCCC[C@H](NC(=O)c1ccc(-c2ccc(F)cc2)cc1)c1nc2cc(F)c(F)cc2[nH]1 [Compound 5t]
[Q] N=C(CF)NCCC[C@H](NC(=O)c1cccc2c1C(=O)NC2)c1nc2ccccc2[nH]1 [Compound 7a]
[R] CCn1c([C@H](CCCNC(=N)CF)NC(=O)c2cccc3c2C(=O)NC3)nc2cc(OC)ccc21 [Compound 7u]
Kindly order the items shown according to kinact/KI, from the highest value down. Quick reminder: the answer is the labels in the order asked. P, Q, R
(P: 120 M⁻¹ s⁻¹, Q: 53.3 M⁻¹ s⁻¹, R: 33 M⁻¹ s⁻¹)

----------
Target: PAD1 (Homo sapiens, UniProt Q9ULC6)
Construct: made in house
Sequence (Q9ULC6 1-663): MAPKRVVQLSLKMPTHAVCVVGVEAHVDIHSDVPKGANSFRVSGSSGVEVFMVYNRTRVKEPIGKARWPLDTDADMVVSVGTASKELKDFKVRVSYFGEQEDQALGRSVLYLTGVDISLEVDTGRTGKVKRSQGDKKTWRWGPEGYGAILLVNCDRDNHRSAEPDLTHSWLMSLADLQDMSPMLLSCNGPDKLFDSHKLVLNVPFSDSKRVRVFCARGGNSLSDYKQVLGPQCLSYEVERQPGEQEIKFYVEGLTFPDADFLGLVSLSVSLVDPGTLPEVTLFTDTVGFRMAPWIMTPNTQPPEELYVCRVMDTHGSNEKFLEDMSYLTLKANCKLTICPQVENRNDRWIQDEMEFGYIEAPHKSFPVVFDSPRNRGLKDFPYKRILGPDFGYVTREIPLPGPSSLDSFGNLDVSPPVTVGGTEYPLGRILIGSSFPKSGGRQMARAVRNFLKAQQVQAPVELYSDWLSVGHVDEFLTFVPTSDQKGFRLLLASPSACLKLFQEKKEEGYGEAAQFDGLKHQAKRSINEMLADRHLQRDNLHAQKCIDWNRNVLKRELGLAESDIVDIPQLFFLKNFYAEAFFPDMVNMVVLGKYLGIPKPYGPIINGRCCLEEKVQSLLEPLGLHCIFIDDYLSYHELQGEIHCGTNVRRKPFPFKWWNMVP
Experiment: Inactivation kinetics, PAD1
Format: biochemical
Details: kinact/KI relative to least inhibited isozyme (1.0)
Description: Inactivation kinetic parameters were determined by incubating PAD1, 2, or 4 (2.0 μM) or PAD3 (5.0 μM) in a pre-warmed (10 min; 37° C.) inactivation mixture (50 mM HEPES, 10 mM CaCl2, and 2 mM DTT, pH 7.6, with a final volume of 60 μL) containing various concentrations of inhibitor. […] After 15 min, reactions were quenched in liquid nitrogen and citrulline production quantified using the COLDER assay. […]
Parameter: Fold PAD1 Selectivity (fold)

Examples with their reported Fold PAD1 Selectivity follow.
[[record]]
compound = "CCn1c([C@H](CCCNC(=N)CF)NC(=O)c2cccc3c2C(=O)NC3)nc2cc(OC)ccc21 [Compound 7u]"
target_or_test_system = "PAD1 (Homo sapiens, UniProt Q9ULC6)"
unit_label = "fold"
reported_result = 24

[[record]]
compound = "N=C(CCl)NCCC[C@H](NC(=O)c1ccc(-c2ccc(F)cc2)cc1)c1nc2cc(F)c(F)cc2[nH]1 [Compound 5t]"
target_or_test_system = "PAD1 (Homo sapiens, UniProt Q9ULC6)"
unit_label = "fold"
reported_result = 5.3

[[record]]
compound = "Cn1c([C@H](CCCNC(=N)CCl)NC(=O)c2ccccc2C(=O)OC(C)(C)C)nc2ccccc21 [Compound 9b]"
target_or_test_system = "PAD1 (Homo sapiens, UniProt Q9ULC6)"
unit_label = "fold"
reported_result = 5.9

[[record]]
compound = "CC(C)n1c([C@H](CCCNC(=N)CF)NC(=O)c2ccc(-c3ccccc3)cc2)nc2ccccc21 [Compound 5k]"
target_or_test_system = "PAD1 (Homo sapiens, UniProt Q9ULC6)"
unit_label = "fold"
reported_result = 1.0


[A] COc1cccc2c1nc([C@H](CCCNC(=N)CF)NC(=O)c1ccc(-c3ccccc3)cc1)n2C [Compound 5m]
[B] CCN1Cc2cccc(C(=O)N[C@@H](CCCNC(=N)CF)c3nc4ccccc4n3C)c2C1=O [Compound 8c]
Lower value for measured Fold PAD1 Selectivity? Options: A , B Kindly state the label of the option you pick. A
(A: 2.4 fold, B: 6.1 fold)

----------
Target: PAD2 (Homo sapiens, UniProt Q9Y2J8)
Construct: made in house
Sequence (Q9Y2J8 whole entry): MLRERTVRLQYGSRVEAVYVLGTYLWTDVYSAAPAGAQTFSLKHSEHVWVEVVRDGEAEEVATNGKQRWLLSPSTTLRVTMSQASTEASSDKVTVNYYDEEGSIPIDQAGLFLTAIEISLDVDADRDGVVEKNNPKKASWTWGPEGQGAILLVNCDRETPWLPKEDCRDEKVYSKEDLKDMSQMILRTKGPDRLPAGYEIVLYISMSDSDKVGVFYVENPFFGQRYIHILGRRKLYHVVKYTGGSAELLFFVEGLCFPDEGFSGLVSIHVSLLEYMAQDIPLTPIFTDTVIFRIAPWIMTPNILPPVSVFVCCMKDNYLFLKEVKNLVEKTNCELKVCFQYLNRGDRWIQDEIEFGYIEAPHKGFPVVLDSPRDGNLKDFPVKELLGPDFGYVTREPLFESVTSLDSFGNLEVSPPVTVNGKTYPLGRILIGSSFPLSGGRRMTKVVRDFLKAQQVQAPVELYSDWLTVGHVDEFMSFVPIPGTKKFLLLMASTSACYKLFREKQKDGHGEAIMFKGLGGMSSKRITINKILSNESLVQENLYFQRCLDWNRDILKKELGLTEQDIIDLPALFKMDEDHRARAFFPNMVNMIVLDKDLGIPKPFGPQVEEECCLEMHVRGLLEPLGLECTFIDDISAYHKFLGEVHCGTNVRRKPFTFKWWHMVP
Experiment: Inactivation kinetics, PAD2
Type: biochemical
Conditions: kinact/KI relative to least inhibited isozyme (1.0)
Parameter: Fold PAD2 Selectivity (fold)

Examples with their reported Fold PAD2 Selectivity follow.
[[record]]
compound = "CCn1c([C@H](CCCNC(=N)CCl)NC(=O)c2cccc3c2C(=O)NC3)nc2ccccc21"
parameter = "Fold PAD2 Selectivity"
reported_result = 4.8

[[record]]
compound = "CCOc1cccc2c1nc([C@H](CCCNC(=N)CF)NC(=O)c1cccc3c1C(=O)N(CC)C3)n2C"
parameter = "Fold PAD2 Selectivity"
reported_result = 26

[[record]]
compound = "CC(C)n1c([C@H](CCCNC(=N)CF)NC(=O)c2ccc(-c3ccccc3)cc2)nc2ccccc21"
parameter = "Fold PAD2 Selectivity"
reported_result = 34

[[record]]
compound = "CCn1c([C@H](CCCNC(=N)CCl)NC(=O)c2cccc3c2C(=O)NC3)nc2cc(OC)ccc21"
parameter = "Fold PAD2 Selectivity"
reported_result = 16

[[record]]
compound = "N=C(CF)NCCC[C@H](NC(=O)c1ccccc1C(=O)O)c1nc2ccccc2[nH]1"
parameter = "Fold PAD2 Selectivity"
reported_result = 1.0


[a] N=C(CCl)NCCC[C@H](NC(=O)c1ccccc1)c1nc2ccccc2[nH]1
[b] CCN1Cc2cccc(C(=O)N[C@@H](CCCNC(=N)CF)c3nc4cc(OC)ccc4n3C)c2C1=O
[c] CCN1Cc2cccc(C(=O)N[C@@H](CCCNC(=N)CF)c3nc4cc(OC)ccc4n3CC)c2C1=O
Please list these compounds in decreasing order of Fold PAD2 Selectivity. Quick reminder: the answer is the labels in the order asked. b, c, a
(b: 125 fold, c: 70 fold, a: 1.0 fold)

----------
Target: PAD4 (Homo sapiens)
Construct: made in house
Sequence (Q9UM07 whole entry): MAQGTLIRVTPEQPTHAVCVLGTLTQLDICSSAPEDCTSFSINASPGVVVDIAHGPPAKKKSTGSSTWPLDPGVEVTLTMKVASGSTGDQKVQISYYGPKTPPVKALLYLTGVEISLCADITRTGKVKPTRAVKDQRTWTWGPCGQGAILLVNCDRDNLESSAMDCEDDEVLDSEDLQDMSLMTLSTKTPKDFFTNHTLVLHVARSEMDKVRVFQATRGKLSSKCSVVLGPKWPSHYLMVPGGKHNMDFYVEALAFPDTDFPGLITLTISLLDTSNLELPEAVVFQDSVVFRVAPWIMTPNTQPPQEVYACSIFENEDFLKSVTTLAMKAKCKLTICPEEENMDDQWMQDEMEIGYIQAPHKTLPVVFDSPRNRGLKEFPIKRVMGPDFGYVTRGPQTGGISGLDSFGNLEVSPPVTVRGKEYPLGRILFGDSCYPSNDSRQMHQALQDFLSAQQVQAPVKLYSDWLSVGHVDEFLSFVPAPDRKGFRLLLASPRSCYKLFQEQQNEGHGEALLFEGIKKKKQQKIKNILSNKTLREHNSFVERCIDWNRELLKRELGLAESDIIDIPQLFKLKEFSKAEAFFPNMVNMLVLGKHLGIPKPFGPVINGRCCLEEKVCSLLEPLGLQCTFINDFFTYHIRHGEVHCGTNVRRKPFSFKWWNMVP
Experiment: Inactivation kinetics, PAD4
Assay type: biochemical
Conditions: a: single kobs determined; b: from a linear fit
Parameter: kinact/KI (M⁻¹ s⁻¹)

[[record]]
compound = "CCN1Cc2cccc(C(=O)N[C@@H](CCCNC(=N)CCl)c3nc4c(OC)cccc4n3CC)c2C1=O [Compound 8v]"
unit_label = "M⁻¹ s⁻¹"
reported_result = 29.2

[[record]]
compound = "CCOc1cccc2c1nc([C@H](CCCNC(=N)CCl)NC(=O)c1cccc3c1C(=O)NC3)n2C [Compound 7n]"
unit_label = "M⁻¹ s⁻¹"
reported_result = 40.2

[[record]]
compound = "CCn1c([C@H](CCCNC(=N)CCl)NC(=O)c2cccc3c2C(=O)NC3)nc2ccccc21 [Compound 7f]"
unit_label = "M⁻¹ s⁻¹"
reported_result = 210

[[record]]
compound = "CCN1Cc2cccc(C(=O)N[C@@H](CCCNC(=N)CCl)c3nc4ccccc4[nH]3)c2C1=O [Compound 8b]"
unit_label = "M⁻¹ s⁻¹"
reported_result = 810


[A] COc1cccc2c1nc([C@H](CCCNC(=N)CCl)NC(=O)c1cccc3c1C(=O)N(C(C)C)C3)n2C [Compound 8r]
[B] N=C(CF)NCCC[C@H](NC(=O)c1ccc(-c2ccc(F)cc2)cc1)c1nc2cc(F)c(F)cc2[nH]1 [Compound 5s]
Exercise: compare A and B ; which one has the greater kinact/KI? Kindly state the label of the option you pick. A
(A: 207 M⁻¹ s⁻¹, B: 67.3 M⁻¹ s⁻¹)

[A] CCN1Cc2cccc(C(=O)N[C@@H](CCCNC(=N)CCl)c3nc4c(OC)cccc4n3C)c2C1=O [Compound 8l]
[B] CC(C)n1c([C@H](CCCNC(=N)CCl)NC(=O)c2ccccc2C(=O)OC(C)(C)C)nc2ccccc21 [Compound 9f]
[C] N=C(CF)NCCC[C@H](NC(=O)c1ccc2ccccc2c1)c1nc2ccccc2[nH]1 [Compound 5c]
[D] CCN1Cc2cccc(C(=O)N[C@@H](CCCNC(=N)CF)c3nc4ccccc4n3C(C)C)c2C1=O [Compound 8g]
Sort the compounds on kinact/KI; start with the lowest figure. Quick reminder: the answer is the labels in the order asked. D, B, C, A

[1] CC(C)n1c([C@H](CCCNC(=N)CCl)NC(=O)c2ccccc2C(=O)O)nc2ccccc21 [Compound 6h]
[2] CCn1c([C@H](CCCNC(=N)CF)NC(=O)c2ccc(-c3ccccc3)cc2)nc2ccccc21 [Compound 5i]
[3] N=C(CF)NCCC[C@H](NC(=O)c1ccccc1C(=O)O)c1nc2ccccc2[nH]1 [Compound 6a]
[4] CCn1c([C@H](CCCNC(=N)CCl)NC(=O)c2ccccc2C(=O)O)nc2ccccc21 [Compound 6f]
[5] CCN1Cc2cccc(C(=O)N[C@@H](CCCNC(=N)CF)c3nc4ccccc4n3CC)c2C1=O [Compound 8e]
Sort the compounds on kinact/KI; start with the lowest figure. Quick reminder: the answer is the labels in the order asked. 2, 1, 5, 4, 3
(2: 0.5 M⁻¹ s⁻¹, 1: 12 M⁻¹ s⁻¹, 5: 20.7 M⁻¹ s⁻¹, 4: 228 M⁻¹ s⁻¹, 3: 405 M⁻¹ s⁻¹)

[A] N=C(CF)NCCC[C@H](NC(=O)c1cccc2c1C(=O)NC2)c1nc2ccccc2[nH]1 [Compound 7a]
[B] Cn1c([C@H](CCCNC(=N)CF)NC(=O)c2ccccc2C(=O)O)nc2ccccc21 [Compound 6c]
[C] COc1cccc2c1nc([C@H](CCCNC(=N)CF)NC(=O)c1cccc3c1C(=O)N(C(C)C)C3)n2C [Compound 8q]
[D] CCOc1cccc2c1nc([C@H](CCCNC(=N)CCl)NC(=O)c1cccc3c1C(=O)N(CC)C3)n2C [Compound 8n]
[E] COc1cccc2c1nc([C@H](CCCNC(=N)CCl)NC(=O)c1cccc3c1C(=O)N(C)C3)n2C [8b′]
Please list these compounds in decreasing order of kinact/KI. Quick reminder: the answer is the labels in the order asked. A, E, C, D, B
(A: 552 M⁻¹ s⁻¹, E: 106 M⁻¹ s⁻¹, C: 70 M⁻¹ s⁻¹, D: 25.2 M⁻¹ s⁻¹, B: 13.3 M⁻¹ s⁻¹)

[a] CCn1c([C@H](CCCNC(=N)CCl)NC(=O)c2ccccc2C(=O)OC(C)(C)C)nc2ccccc21 [Compound 9d]
[b] CCN1Cc2cccc(C(=O)N[C@@H](CCCNC(=N)CF)c3nc4cc(OC)ccc4n3C)c2C1=O [Compound 8o]
[c] CC(C)n1c([C@H](CCCNC(=N)CF)NC(=O)c2ccc(-c3ccccc3)cc2)nc2ccccc21 [Compound 5k]
[d] N=C(CCl)NCCC[C@H](NC(=O)c1ccc2ccccc2c1)c1nc2ccccc2[nH]1 [Compound 5d]
Please list these compounds in decreasing order of kinact/KI. Quick reminder: the answer is the labels in the order asked. d, b, a, c

[a] CCn1c([C@H](CCCNC(=N)CF)NC(=O)c2cccc3c2C(=O)NC3)nc2c(OC)cccc21 [Compound 7q]
[b] CCN1Cc2cccc(C(=O)N[C@@H](CCCNC(=N)CCl)c3nc4ccccc4n3C)c2C1=O [Compound 8d]
[c] COc1cccc2c1nc([C@H](CCCNC(=N)CF)NC(=O)c1cccc3c1C(=O)NC3)n2C [Compound 7k]
Sort the compounds on kinact/KI; start with the lowest figure. Quick reminder: the answer is the labels in the order asked. a, b, c
(a: 26.3 M⁻¹ s⁻¹, b: 75.7 M⁻¹ s⁻¹, c: 238 M⁻¹ s⁻¹)
